Molecular target: UniProt:Q07817
Assay: Displacement of F-bid from human recombinant N-terminal His-tagged Bcl-xL (1 to 209) expressed in Escherichia coli BL21(DE3) after 30 mins by TR-FRET assay
Measurement Type: IC50 (µM)
Number in µM, nothing else.

Briefly, IC50 measured for O=C(CC(Sc1ccc(Cl)cc1)C(=O)O)c1ccc(C2CCCCC2)cc1 (stereo unspecified) : 18

---

Molecular target: Induced myeloid leukemia cell differentiation protein Mcl-1 (Homo sapiens)
Sequence (Q07820 whole entry): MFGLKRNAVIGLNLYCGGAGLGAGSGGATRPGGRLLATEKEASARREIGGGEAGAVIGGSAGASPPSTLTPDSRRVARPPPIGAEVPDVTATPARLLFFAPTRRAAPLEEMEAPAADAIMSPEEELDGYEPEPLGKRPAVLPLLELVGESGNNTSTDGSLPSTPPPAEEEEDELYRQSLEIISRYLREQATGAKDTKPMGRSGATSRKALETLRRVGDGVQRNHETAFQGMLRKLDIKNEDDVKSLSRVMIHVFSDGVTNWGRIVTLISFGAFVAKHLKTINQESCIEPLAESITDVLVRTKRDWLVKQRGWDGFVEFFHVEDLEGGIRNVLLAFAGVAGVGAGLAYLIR
Assay: Displacement of F-bid from human recombinant N-terminal His-tagged Mcl-1 (1 to 319) expressed in Escherichia coli BL21(DE3) after 120 mins by TR-FRET assay
Measurement Type: Ki

Record summary for O=C(CC(Sc1ccc(Cl)cc1)C(=O)O)c1ccc(C2CCCCC2)cc1 (configuration not stated) : reported Ki = 12 µM

Consider the additional molecule presented here.
// recorded Ki for O=C(CC(Cc1ccc(Cl)cc1)C(=O)O)c1ccc(C2CCCCC2)cc1 (configuration not stated) : 20 µM

---

Molecular target: Bcl-2-like protein 1 (Homo sapiens, UniProt Q07817)
Sequence (Q07817 whole entry): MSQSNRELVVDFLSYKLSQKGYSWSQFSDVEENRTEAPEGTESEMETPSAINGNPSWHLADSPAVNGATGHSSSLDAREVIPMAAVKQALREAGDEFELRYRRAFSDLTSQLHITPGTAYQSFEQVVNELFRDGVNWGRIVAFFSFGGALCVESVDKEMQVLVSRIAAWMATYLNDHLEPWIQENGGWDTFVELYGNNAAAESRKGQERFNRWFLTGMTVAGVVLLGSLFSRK
Experiment: Displacement of F-bid from human recombinant N-terminal His-tagged Bcl-xL (1 to 209) expressed in Escherichia coli BL21(DE3) after 120 mins by TR-FRET assay
Measurement Type: IC50 (µM)
The figure you give is taken to be in µM; do not add the unit.

// O=C(CC(Sc1ccc(Cl)cc1)C(=O)O)c1ccc(C2CCCCC2)cc1 (stereo unspecified) : IC50 value = 19

---

Target: UniProt Q07817
Test: Displacement of F-bid from human recombinant N-terminal His-tagged Bcl-xL (1 to 209) expressed in Escherichia coli BL21(DE3) after 120 mins by TR-FRET assay
Measurement Type: Ki (µM)
Respond numerically; units are µM and should not be typed.

# Ki (compound: O=C(CC(Sc1ccc(Cl)cc1)C(=O)O)c1ccc(C2CCCCC2)cc1 (stereo unspecified) ) is 12
